A collection of proteins and their measured kcat/Km
# Substrate: O=c1ccn([C@@H]2O[C@H](COP(=O)(O)OP(=O)(O)O[C@H]3O[C@H](CO)[C@H](O)[C@H](O)[C@H]3O)[C@@H](O)[C@H]2O)c(=O)[nH]1
# test name: galactosyltransferase assay, HPLC-UV
# Format: biochemical, Homo sapiens
# measurement parameters: apparent, fixed 5 mM 4-MUX, 10 mM MnCl2, 100 mM sodium cacodylate pH 7.0, 37 °C
Your reply should be a number followed by the unit it is expressed in.

>  <protein>
hβ4GalT7 (GST-β4GalT7) (Homo sapiens; R226K) (protein, truncated soluble form lacking the first 60 N-terminal amino acids (transmembrane domain and part of stem), GST fusion (tag kept), pET-41a(+), E. coli BL21(DE3), glutathione-Sepharose purified) VRGQGQETSGPPRACPPEPPPEHWEEDASWGPHRLAVLVPFRERFEELLVFVPHMRRFLSRKKIRHHIYVLNQVDHFRFNRAALINVGFLESSNSTDYIAMHDVDLLPLNEELDYGFPEAGPFHVASPELHPLYHYKTYVGGILLLSKQHYRLCNGMSNRFWGWGKEDDEFYRRIKGAGLQLFRPSGITTGYKTFRHLHDPAWRKRDQKRIAAQKQEQFKVDREGGLNTVKYHVASRTALSVGGAPCTVLNIMLDCDKTATPWCTFS

>  <kcat/Km>
4700 M⁻¹ s⁻¹

$$$$

Next up:
Which kcat/Km value belongs to hβ4GalT7 (GST-β4GalT7) (Homo sapiens; H195R) (protein, truncated soluble form lacking the first 60 N-terminal amino acids (transmembrane domain and part of stem), GST fusion (tag kept), pET-41a(+), E. coli BL21(DE3), glutathione-Sepharose purified) VRGQGQETSGPPRACPPEPPPEHWEEDASWGPHRLAVLVPFRERFEELLVFVPHMRRFLSRKKIRHHIYVLNQVDHFRFNRAALINVGFLESSNSTDYIAMHDVDLLPLNEELDYGFPEAGPFHVASPELHPLYRYKTYVGGILLLSKQHYRLCNGMSNRFWGWGREDDEFYRRIKGAGLQLFRPSGITTGYKTFRHLHDPAWRKRDQKRIAAQKQEQFKVDREGGLNTVKYHVASRTALSVGGAPCTVLNIMLDCDKTATPWCTFS ? 4920 M⁻¹ s⁻¹
